Please provide measured DC50 for the entries that follow.
Target: Estrogen Receptor (ERα) in MCF-7 human ductal carcinoma breast cell line (Homo sapiens, UniProt P03372)
Construct: endogenous in cells; host or cells: MCF-7
Sequence (P03372 whole entry): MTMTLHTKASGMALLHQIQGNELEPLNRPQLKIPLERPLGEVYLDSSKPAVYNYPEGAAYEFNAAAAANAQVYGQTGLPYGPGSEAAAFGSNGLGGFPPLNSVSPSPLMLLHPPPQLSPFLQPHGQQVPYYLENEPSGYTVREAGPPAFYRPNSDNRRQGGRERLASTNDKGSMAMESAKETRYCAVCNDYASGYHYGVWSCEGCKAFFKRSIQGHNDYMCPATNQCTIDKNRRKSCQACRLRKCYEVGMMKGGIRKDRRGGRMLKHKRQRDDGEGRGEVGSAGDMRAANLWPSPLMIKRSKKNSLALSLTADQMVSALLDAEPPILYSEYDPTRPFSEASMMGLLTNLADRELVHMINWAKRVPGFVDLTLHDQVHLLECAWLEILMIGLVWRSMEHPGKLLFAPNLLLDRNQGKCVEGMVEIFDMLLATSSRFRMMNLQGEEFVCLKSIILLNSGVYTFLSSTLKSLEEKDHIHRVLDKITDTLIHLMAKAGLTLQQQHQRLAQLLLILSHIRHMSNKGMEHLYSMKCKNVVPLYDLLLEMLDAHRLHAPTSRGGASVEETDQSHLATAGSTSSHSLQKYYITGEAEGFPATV
Test: MCF-7 ER degradation assay (cell based immuno-fluorescence)
Conditions: MCF-7 cells, 18-22 hours incubation, 50% reduction of ERα expression; single experiment or average of two or more; read-out: MCF-7 ER degradation IC50
Procedure: MCF-7 ER Degradation Assay The ability of compounds to down-regulate Estrogen Receptor (ER) numbers was assessed in a cell based immuno-fluorescence assay using the MCF-7 human ductal carcinoma breast cell line. […] Cells were syringed once using a sterile 18 G×1.5 inch (1.2×40 mm) broad gauge needle and cell density was measured using a Coulter Counter (Beckman). […]
State just the number; it will be interpreted in nM.

Request: What value of DC50 has been recorded for this entry: Cc1ncsc1-c1ccc(CNC(=O)[C@@H]2C[C@@H](O)CN2C(=O)[C@@H](NC(=O)COC[C@@H]2CC2COCCOc2cc(F)c([C@@H]3c4[nH]c5ccccc5c4C[C@@H](C)N3CC(C)(C)F)c(F)c2)C(C)(C)C)cc1 (single isomer, unassigned) [Example 124]
Response: 0.8

Request: What DC50 value was documented for this compound, `Cc1ncsc1-c1ccc(CNC(=O)[C@@H]2C[C@@H](O)CN2C(=O)[C@@H](NC(=O)COCC/C=C/CCOc2cc(F)c([C@@H]3c4[nH]c5ccccc5c4C[C@@H](C)N3CC(C)(C)F)c(F)c2)C(C)(C)C)cc1` ?
Response: 3

Request: Which DC50 reading was recorded for the compound `Cc1ncsc1-c1ccc(CNC(=O)[C@@H]2C[C@@H](O)CN2C(=O)[C@@H](NC(=O)CN2CC3(CCN(CCOc4cc(F)c([C@@H]5c6[nH]c7ccccc7c6C[C@@H](C)N5CC(C)(C)F)c(F)c4)CC3)C2)C(C)(C)C)cc1` ?
Response: 1.9

Request: Consider the compound `Cc1ncsc1-c1ccc([C@H](C)NC(=O)[C@@H]2C[C@@H](O)CN2C(=O)[C@@H](NC(=O)COCCOCCCCCOc2cc(F)c([C@@H]3c4[nH]c5ccccc5c4C[C@@H](C)N3CC(F)(F)F)c(F)c2)C(C)(C)C)cc1` and give its measured DC50.
Response: 0.6

* * *

Biological target: Estrogen Receptor (ERα) in MCF-7 human ductal carcinoma breast cell line (Homo sapiens)
Construct: endogenous in cells; host or cells: MCF-7
Experiment: MCF-7 ER degradation assay (cell based immuno-fluorescence)
Details: MCF-7 cells, 0.3 μM; ER degradation by fulvestrant at 0.3 μM is defined as 100%
Procedure: MCF-7 ER Degradation Assay The ability of compounds to down-regulate Estrogen Receptor (ER) numbers was assessed in a cell based immuno-fluorescence assay using the MCF-7 human ductal carcinoma breast cell line. […] Cells were syringed once using a sterile 18 G×1.5 inch (1.2×40 mm) broad gauge needle and cell density was measured using a Coulter Counter (Beckman). […]
MEASURED_ENDPOINT: ER degradation ≥ 90% at 0.3 μM

Request: Which measured ER degradation ≥ 90% at 0.3 μM value corresponds to `Cc1ncsc1-c1ccc(CNC(=O)[C@@H]2C[C@@H](O)CN2C(=O)[C@@H](NC(=O)COCCOCCOCCOCCOCCOCC(=O)Nc2ccc([C@@H]3c4[nH]c5ccccc5c4C[C@@H](C)N3CC(C)(C)F)cc2)C(C)(C)C)cc1` ?
Response: ••

Request: Which ER degradation ≥ 90% at 0.3 μM reading was recorded for the compound `Cc1ncsc1-c1ccc(CNC(=O)[C@@H]2C[C@@H](O)CN2C(=O)[C@@H](NC(=O)COCCOCCOCCOc2cc(F)c([C@@H]3c4[nH]c5ccccc5c4C[C@@H](C)N3CC(C)(C)F)c(F)c2)C(C)(C)C)cc1` ?
Response: ••

Request: Fill in the blank: the reported ER degradation ≥ 90% at 0.3 μM of `Cc1ncsc1-c1ccc(CNC(=O)[C@@H]2C[C@@H](O)CN2C(=O)[C@@H](NC(=O)COCCCCCOc2cc(F)c([C@@H]3c4[nH]c5ccccc5c4C[C@@H](C)N3CC(C)(C)F)c(F)c2)C(C)(C)C)cc1` is ____.
Response: •

Request: For `Cc1ncsc1-c1ccc(CNC(=O)[C@@H]2C[C@@H](O)CN2C(=O)[C@@H](NC(=O)CCCCCCCOCCOc2cc(F)c([C@@H]3c4[nH]c5ccccc5c4C[C@@H](C)N3CC(C)(C)F)c(F)c2)C(C)(C)C)cc1` , what is its reported ER degradation ≥ 90% at 0.3 μM?
Response: •
